- Tested on: 324938-238-R-J1-PDC complex spheroid viability;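 further: spheroids also contain HUVEC and human MSCs and agents combined with iadademstat; spheroids exposed to agents for 7 days before readout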
- test: Anticancer human tumor 324938-238-R-J1-PDC patient-derived bladder carcinoma cell line growth inhibition
- condition-details: curve of first compound; second compound 0.316 µM
- Source text: Multicellular complex tumor spheroid response to LSD1 Inhibitor Iadademstat in combination with a variety of drugs and investigational agents in selected tumor cell lines The current study was undertaken to assess response to LSD1 inhibitors in combination with standard-of-care drugs and investigational agents in solid tumor complex spheroid models as well as in the K-562 leukemia. […] Compounds. […] If the clinical Cmax for an agent had not been determined, the highest concentration tested was 10 microM. […]
pIC50: −log10 of the molar value.
Catalogue of molecules with associated pIC50

>  <molecule>
CCN(c1cc(-c2ccc(CN3CCOCC3)cc2)cc(C(=O)NCc2c(C)cc(C)[nH]c2=O)c1C)C1CCOCC1 + NC1CCC(NC2CC2c2ccccc2)CC1

>  <pIC50>
< 5.52

$$$$
>  <molecule>
Cn1ncnc1C1c2n[nH]c(=O)c3cc(F)cc(c23)NC1c1ccc(F)cc1 (stereo not drawn) + NC1CCC(NC2CC2c2ccccc2)CC1

>  <pIC50>
< 7.00

$$$$
>  <molecule>
O=C(C=Cn1cnc(-c2cc(C(F)(F)F)cc(C(F)(F)F)c2)n1)NNc1cnccn1 + NC1CC1c1ccc(-c2cccc(O)c2)cc1

>  <pIC50>
> 8.50

$$$$
